Test system: CCRIS mutagenicity, Ames/micronucleus/aberration tests
Assay: CCRIS mutagenicity studies
Details: Test System: AMES SALMONELLA TYPHIMURIUM; Strain/Indicator: TA98; Metabolic Activation: NONE; Method: PREINCUBATION
Active and inactive are the calls of the source. The rule behind the calls is not given here.
Select the matching outcome among YES = active, NO = inactive

[
  {
    "molecule": "O=C1c2ccccc2C(=O)C1(O)O",
    "label-value": "NO"
  }
]

Each molecule tested received a call. Report the one for "c1cc2c3c(c1)ccc1cccc(c13)C2" .
NO

Note, next up: "C=C(C)C(=O)OCCC"
NO

And what about the molecule O=NN1CCSC1CO (stereo not drawn) ?
NO

Param item: "CN(C)CCN(C)C"
NO

Same lookup for ClC1(Cl)C2(Cl)C3(Cl)C4(Cl)C(Cl)(Cl)C5(Cl)C3(Cl)C1(Cl)C5(Cl)C24Cl (stereo not drawn) , please.
NO

What do you get for "OCCNCCO" ?
NO

Do the same for "NC(=O)/C=C/c1ccc([N+](=O)[O-])o1" please
YES

* * *

Tested on: CCRIS mutagenicity, Ames/micronucleus/aberration tests
Assay: CCRIS mutagenicity studies
Settings: Test System: AMES SALMONELLA TYPHIMURIUM; Strain/Indicator: TA100; Metabolic Activation: NONE; Method: STANDARD PLATE
Active and inactive are the calls of the source. No rule for the calls is given here.
reported-endpoint: mutagenic call

See these solved cases before continuing.
[
  {
    "compound": "CCOC(=O)C1=C(C)NC(C)=C(C(=O)OCC2COC3(CCCC3)O2)C1c1cccc(Cl)c1 (stereo not drawn)",
    "reported-endpoint": "mutagenic call",
    "obs-value": "inactive; negative"
  },
  {
    "compound": "CC(=O)Nc1ccc(C(=O)CCl)cc1",
    "reported-endpoint": "mutagenic call",
    "obs-value": "inactive; negative"
  },
  {
    "compound": "O=C1OCC(CBr)=C1Cl",
    "reported-endpoint": "mutagenic call",
    "obs-value": "active; positive"
  },
  {
    "compound": "ONc1ccc(-c2ccccc2)cc1",
    "reported-endpoint": "mutagenic call",
    "obs-value": "active; positive"
  },
  {
    "compound": "Cc1ccc(C(O)(P(=O)(O)O)P(=O)(O)O)cc1N(CCCl)CCCl",
    "reported-endpoint": "mutagenic call",
    "obs-value": "inactive; negative"
  },
  {
    "compound": "CCc1cc(O)cc2c3c([nH]c12)C(CC)(CC(=O)O)OCC3 (stereo not drawn)",
    "reported-endpoint": "mutagenic call",
    "obs-value": "inactive; negative"
  },
  {
    "compound": "COc1ccc(CC2CO2)cc1OC (stereo not drawn)",
    "reported-endpoint": "mutagenic call",
    "obs-value": "active; positive"
  },
  {
    "compound": "Cc1cc([N+](=O)[O-])c(C)c2c1[nH]c1ccccc12",
    "reported-endpoint": "mutagenic call",
    "obs-value": "inactive; negative"
  },
  {
    "compound": "O=P([O-])([O-])OC(CCO)CCO.O=P([O-])([O-])OCC(O)CO.[Mn+2].[Mn+2]",
    "reported-endpoint": "mutagenic call",
    "obs-value": "inactive; negative"
  },
  {
    "compound": "CC[C@H](C)OS(C)(=O)=O",
    "reported-endpoint": "mutagenic call",
    "obs-value": "active; positive"
  }
]

# lookup: mutagenic call of "Clc1ccc2c(c1)oc1ccccc12"
active; positive

Thanks! And "C1=CCCCC1" ?
inactive; negative

Same read-out for "C[CH2][Ge]([Cl])([CH2]C)[CH2]C" ?
inactive; negative

Can you check "CCCC[C@@H](C)[C@@H](OC(=O)C[C@@H](CC(=O)O)C(=O)O)[C@H](C[C@@H](C)CCCCCC[C@@H](O)C[C@H](O)[C@H](C)N)OC(=O)C[C@@H](CC(=O)O)C(=O)O" next?
inactive; negative

And the next one, Cc1cc(Cl)ccc1OC(C)C(=O)O (stereo not drawn) ?
inactive; negative

And "O=S(=O)(O)c1ccc(N=Nc2c(O)ccc3cc(S(=O)(=O)O)ccc23)cc1" ?
inactive; negative

Note, next up: "CCN(CCCl)c1ccc(-c2nc3ccc(-c4nc5ccc(N6CCN(C)CC6)cc5[nH]4)cc3[nH]2)cc1"
inactive; negative

Query "N#C/C(=C/C=C/c1ccccc1[N+](=O)[O-])c1ccc(Br)cc1" next
active; positive

What do we get for "CCN(N=O)c1ccccc1" ?
inactive; negative

Check "O=C1c2ccccc2C(=O)c2ccccc21" too.
inactive; negative

Thanks! And "CCN(CC)c1ccc2c(-c3ccc(S(=O)(=O)O)cc3S(=O)(=O)[O-])c3ccc(=[N+](CC)CC)cc-3oc2c1" ?
inactive; negative

Try "ClC(Cl)=C(Cl)c1ccc(Cl)c(Cl)c1Cl" next.
inactive; negative

Moving on to the next compound: "c1cc(-c2cc3ccc(C4=NCCN4)cc3[nH]2)ccc1C1=NCCN1"
inactive; negative

* * *

Test system: CCRIS mutagenicity, Ames/micronucleus/aberration tests
Test: CCRIS mutagenicity studies
Details: Test System: AMES SALMONELLA TYPHIMURIUM; Strain/Indicator: TA98; Metabolic Activation: NONE; Method: STANDARD PLATE
The source made the active and inactive calls. How the calls were made is not given here.
Could you please pick one outcome from this set? True = active, False = inactive

[
  {
    "compound": "ONc1ccccc1-c1ccccc1",
    "system": "CCRIS mutagenicity, Ames/micronucleus/aberration tests",
    "label-value": "False"
  },
  {
    "compound": "O=C(CCc1ccc(O)cc1)c1c(O)cc(O)cc1O",
    "system": "CCRIS mutagenicity, Ames/micronucleus/aberration tests",
    "label-value": "False"
  },
  {
    "compound": "C[C@H]1CCCC(=O)CCC/C=C/c2cc(O)cc(O)c2C(=O)O1",
    "system": "CCRIS mutagenicity, Ames/micronucleus/aberration tests",
    "label-value": "False"
  },
  {
    "compound": "COc1c(Cl)ccc(Cl)c1C(=O)O",
    "system": "CCRIS mutagenicity, Ames/micronucleus/aberration tests",
    "label-value": "False"
  }
]

Field: next compound
What was the test verdict on "Nc1c(S(=O)(=O)O)cc(NC2CCCCC2)c2c1C(=O)c1ccccc1C2=O" ?
False

* * *

Test system: CCRIS mutagenicity, Ames/micronucleus/aberration tests
Assay: CCRIS mutagenicity studies
Details: Test System: AMES SALMONELLA TYPHIMURIUM; Strain/Indicator: TA1537; Metabolic Activation: NONE; Method: PREINCUBATION
From the text: The CCRIS database contains chemical records with carcinogenicity, mutagenicity, tumor promotion, and tumor inhibition test results. It was developed by the National Cancer Institute (NCI). Data are derived from studies cited in primary journals, current awareness tools, NCI reports, and other sources. Test results have been reviewed by experts in carcinogenesis and mutagenesis. CCRIS provides historical information from the years 1985 - 2011. It is no longer updated. […]
The source made the active and inactive calls. The rule behind the calls is not given here.
Hi! Could you answer with just one of these? active, inactive

Some entries whose results are on file:
[
  {
    "compound": "CCOc1ccc2ccccc2c1",
    "label-value": "inactive"
  },
  {
    "compound": "CCOC(=O)c1ccccc1N",
    "label-value": "inactive"
  },
  {
    "compound": "Nc1c2ccccc2nc2ccc(I)cc12",
    "label-value": "active"
  },
  {
    "compound": "CN(C)CCCN",
    "label-value": "inactive"
  },
  {
    "compound": "O=c1ccc(=O)c2c(=O)c(Cl)c(Cl)c(=O)c1=2",
    "label-value": "inactive"
  }
]

Record lookup: outcome of this test for "O=C1C=CC(=O)c2ccccc21" ?
inactive

What do we get for "Nc1ccc(O)c(C(=O)O)c1" ?
inactive

Continue with "CCOC(=O)c1ccccc1C(=O)OCC"
inactive

For "Clc1c(Cl)c(Cl)c2ccccc2c1Cl" then?
inactive

What about this compound? "C=CCOC(=O)c1ccccc1N"
inactive

"C=C(C)C#N" ?
inactive

Now try "CC1(C)S[C@@H]2[C@H](NC(=O)COc3ccccc3)C(=O)N2[C@H]1C(=O)O" .
inactive

* * *

System: CCRIS mutagenicity, Ames/micronucleus/aberration tests
Assay: CCRIS mutagenicity studies
Settings: Test System: AMES SALMONELLA TYPHIMURIUM; Strain/Indicator: TA98; Metabolic Activation: NONE; Method: PREINCUBATION
Description: The CCRIS database contains chemical records with carcinogenicity, mutagenicity, tumor promotion, and tumor inhibition test results. It was developed by the National Cancer Institute (NCI). Data are derived from studies cited in primary journals, current awareness tools, NCI reports, and other sources. Test results have been reviewed by experts in carcinogenesis and mutagenesis. CCRIS provides historical information from the years 1985 - 2011. It is no longer updated. […]
Activity calls are given as the source filed them. The rule behind the calls is not given here.
Hi! Could you answer with just one of these? class 1 for active, class 0 for inactive

Before answering, review these 6 worked examples.
[
  {
    "compound": "O=C(O)C[C@H](O)C[C@H](O)/C=C/c1c(C2CC2)nc2ccccc2c1-c1ccc(F)cc1",
    "label-value": "class 0"
  },
  {
    "compound": "Nc1ccccc1[N+](=O)[O-]",
    "label-value": "class 0"
  },
  {
    "compound": "C/C=C1\\CC2C=CC1C2 (centres undefined)",
    "label-value": "class 0"
  },
  {
    "compound": "[O-][n+]1ccc2cnncc2c1",
    "label-value": "class 1"
  },
  {
    "compound": "OCC(Br)CBr (centres undefined)",
    "label-value": "class 1"
  },
  {
    "compound": "CC(C)(C)CC(C)(C)c1ccc(O)cc1",
    "label-value": "class 0"
  }
]

What classification did "CN(C)CCN(Cc1ccc(Cl)s1)c1ccccn1" end up with in this test?
class 0

Here is the next compound: COc1cc([N+](=O)[O-])ccc1N=NC(C(C)=O)C(=O)Nc1ccccc1OC (centres undefined)
class 0

Next entry: "NCCNCCNCCNCCN"
class 1

And "Cc1ccc(C=O)o1" ?
class 0

Next record, please: "c1ccc(Nc2ccc3ccccc3c2)cc1"
class 0

Ok, now "Oc1ccc(Cl)cc1Sc1cc(Cl)ccc1O"
class 0

Can you check "C[CH2][Pb]([Cl])([CH2]C)[CH2]C" next?
class 0

Next entry: "COc1ccc2c3c([nH]c2c1)C(C)=NCC3"
class 0

What do you get for "O=C1CCC(=O)O1" ?
class 0

// next record "O=C(O)CS"
class 0

Proceed to CCC(C)NC(=O)C=Cc1ccc([N+](=O)[O-])o1 (centres undefined)
class 1

Would you mind doing "O=C1C=CC(=O)c2c(O)c(Cl)c(Cl)c(O)c21" as well?
class 0

// repeat for "Cc1c2ccccc2cc2ccc3c(c12)C=CC(=O)C3=O" and report
class 1

Entry to check: "O[C@@H]1[C@@H]2O[C@@H]2c2c(ccc3cc4c(ccc5ccccc54)nc23)[C@H]1O"
class 1

Similarly, "Nc1ccc(O)c(C(=O)O)c1" ?
class 0

Same read-out for "O=Cc1ccc(O)cc1" ?
class 0
